Hello, the source for this data is paper PMC11299231, in case you need it.

- testedOn: CYP3A4 (Homo sapiens, UniProt P08684)
- Sequence (P08684 whole entry): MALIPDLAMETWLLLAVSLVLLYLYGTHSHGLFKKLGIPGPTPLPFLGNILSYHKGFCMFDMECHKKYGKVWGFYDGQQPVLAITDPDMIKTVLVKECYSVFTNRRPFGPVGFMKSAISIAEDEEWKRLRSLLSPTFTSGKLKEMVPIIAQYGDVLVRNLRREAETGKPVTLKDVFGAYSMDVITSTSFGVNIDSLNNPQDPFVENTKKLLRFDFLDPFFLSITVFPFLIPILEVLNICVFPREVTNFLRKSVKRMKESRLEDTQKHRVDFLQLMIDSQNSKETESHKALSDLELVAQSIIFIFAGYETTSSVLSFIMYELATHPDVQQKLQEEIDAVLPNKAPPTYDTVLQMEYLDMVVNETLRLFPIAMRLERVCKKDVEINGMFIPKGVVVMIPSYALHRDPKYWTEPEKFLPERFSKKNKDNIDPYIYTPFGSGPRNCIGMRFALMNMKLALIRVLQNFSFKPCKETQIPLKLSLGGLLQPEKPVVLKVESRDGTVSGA
- measurementParameters: read-out: IC50, BFC debenzylation activity of CYP3A4; soluble reconstituted system, 37 °C, BFC substrate
quantity: IC50

Enter reported IC50 observed with CYP3A4 (Homo sapiens, UniProt P08684) for C[C@]12CC[C@H]3[C@@H]([C@H](C/C=C/Cn4cc([C@]5(O)CC[C@H]6[C@@H]7CCc8cc(O)ccc8[C@H]7CC[C@@]65C)nn4)CC4=CC(=O)CC[C@@]43C)[C@@H]1CC[C@@H]2O [Compound 1]
> 5 µM

###

Please respond with reported pIC50 for every item in the list.
- System: DU145 (AR-)
- protocolSummary: Antiproliferative activity assay
- Type: cell-based, human
- measurementParameters: Homo sapiens, DU-145, 48 h, read-out: IC50 ± SEM, DU145 (AR−)
pIC50 field: float, defined as -log10 of concentration (mol/L).

Endpoint output: pIC50 of CC(O)(CS(=O)(=O)c1ccc(F)cc1)C(=O)Nc1ccc(C#N)c(C(F)(F)F)c1 (centres unmarked) [Bicalutamide, bicalutamide, reference compound] . Value?
4.28

Requested field: pIC50. Item: CC/C(=C(\c1ccc(O)cc1)c1ccc(OCCN(C)C)cc1)c1ccccc1 [Compound 4-OHT, 4-hydroxytamoxifen, reference compound]
4.89

###

- Tested on: LNCaP (AR + )
- protocolSummary: Antiproliferative activity assay
- Format: cell-based, human
- measurementParameters: read-out: IC50 ± SEM, LNCaP (AR + ); prostate adenocarcinoma cells, 48 h, SRB
pIC50: −log10 of the molar value.
quantity: pIC50

Requested read-out: pIC50. Entry: C[C@]12CC[C@H]3[C@@H]([C@H](C/C=C/Cn4cc([C@]5(O)CC[C@H]6[C@@H]7CCc8cc(O)ccc8[C@H]7CC[C@@]65C)nn4)CC4=CC(=O)CC[C@@]43C)[C@@H]1CC[C@@H]2O
< 5.30

###

- System: M21
- protocolSummary: Antiproliferative activity assay
- Type: cell-based, human
- measurementParameters: Homo sapiens, M21, 48 h, read-out: IC50 ± SEM, M21
quantity: IC50 (µM)
I only need the number, in µM, no unit after it.

# get_value(readout='IC50', item= CC(O)(CS(=O)(=O)c1ccc(F)cc1)C(=O)Nc1ccc(C#N)c(C(F)(F)F)c1 (centres unmarked) [Bicalutamide, bicalutamide, reference compound] )
49

Which IC50 is reported for this compound? CC/C(=C(\c1ccc(O)cc1)c1ccc(OCCN(C)C)cc1)c1ccccc1 [Compound 4-OHT, 4-hydroxytamoxifen, reference compound]
4.2

###

- System: HT-29
- protocolSummary: Antiproliferative activity assay
- Assay type: cell-based, human
- measurementParameters: read-out: IC50 ± SEM, HT-29; colon carcinoma cells, 48 h, SRB
quantity: IC50

I have this compound here, C[C@]12CC[C@H]3[C@@H]([C@H](C/C=C/Cn4cc([C@]5(O)CC[C@H]6[C@@H]7CCc8cc(O)ccc8[C@H]7CC[C@@]65C)nn4)CC4=CC(=O)CC[C@@]43C)[C@@H]1CC[C@@H]2O , and I need its recorded IC50.
3.5 µM

###

- System: MDA-MB-231 (ER-)
- protocolSummary: Antiproliferative activity assay
- Format: cell-based, human
- measurementParameters: Homo sapiens, MDA-MB-231, 48 h, read-out: IC50 ± SEM, MDA-MB-231 (ER−)
quantity: pIC50
Schema: pIC50 number; meaning minus log10 of the concentration expressed in molar units.

Entry under review: CC/C(=C(\c1ccc(O)cc1)c1ccc(OCCN(C)C)cc1)c1ccccc1 [Compound 4-OHT, 4-hydroxytamoxifen, reference compound] . Reported pIC50?
5.15
